This collection of values is drawn from paper PMC7826789.

test system: CAMK2B; conditions: Compound Concentration (nM):1000;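 also: KINOMEscan scanMAX binding as percent activity remaining versus control; lower means stronger binding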
Below, each entry is listed alongside its reported Percent Control.
Provide only the numeric value, understood in %.

Record lookup: for CAMK2B, what Percent Control belongs to CCn1c(-c2nonc2N)nc2c(C#CC(C)(C)O)nc(OCCNC)cc21.Cl ?
100

# query: Percent Control | item Cc1cc(O)cc(C)c1/C=C/c1cncc(C(N)=O)c1 [GW435821X] | system: CAMK2B
100

Form entry - test system: CAMK2B; read-out: Percent Control; compound: Cl.O=C(Nc1ccc(Oc2ccc3[nH]c(NC(=O)c4ccccc4)nc3c2)cc1)Nc1cc(C(F)(F)F)ccc1F [GW709042A]
95

Field: Percent Control (CAMK2B). Entry: C[C@@H](Oc1cc(-n2cnc3ccc(OC4CCN(C)CC4)cc32)sc1C(N)=O)c1ccccc1Cl [GSK579289A]
80

Recorded Percent Control for CCc1ccc(Oc2nccc(-c3c(-c4ccc(F)cc4)ncn3C3CCNCC3)n2)cc1 with CAMK2B, please?
63

GET /values?readout=Percent Control&system=CAMK2B&item= CN(C)CCNC(=O)Nc1ccc(N(C)c2ccnc(Nc3ccc(CS(C)(=O)=O)cc3)n2)cc1.Cl [GW830900A]
84

Please tell me: Percent Control of COc1cc(/C=N/Nc2ncnc3[nH]ncc23)ccc1O [GW578748X] , system CAMK2B?
100

Write down the reported Percent Control of COc1ccc(COc2ccc(Cc3cnc(N)nc3N)cc2OC)cc1 [GW632580X] , test system: CAMK2B.
96

Write down the reported Percent Control of NS(=O)(=O)c1ccc(N/N=C2\C(=O)Nc3ccc(C(=O)NCCc4c[nH]cn4)cc32)cc1 [GW300660X] , test system: CAMK2B.
100

Form field - read-out: Percent Control; system: CAMK2B; submitted item: Cl.O=C(O[C@H]1CN[C@H](C#Cc2cc3ncnc(Nc4ccc5c(cnn5Cc5ccccc5)c4)c3s2)C1)N1CCOCC1 [GSK200398A]
84

What value of Percent Control on CAMK2B does CCS(=O)(=O)c1ccc(OC)c(Nc2ncc(-c3cccc(F)c3)o2)c1 [GW621970X] have?
100

Which Percent Control is reported with CAMK2B for this entry: COc1cc(C)c(N(C)C(=O)CN(C)C)cc1Nc1nc(Nc2cccc(F)c2C(N)=O)c2cc[nH]c2n1 ?
93

* * *

system: PAK6; details: Compound Concentration (nM):1000
METRIC: Percent Control (%)
Response body: numeric value in %, unit text excluded.

- MOLECULE: "Cl.O=C(Nc1ccc(Oc2ccc3[nH]c(NC(=O)c4ccco4)nc3c2)cc1)Nc1cc(C(F)(F)F)ccc1F [GW683134A]"
  Percent Control [%]: 92
- MOLECULE: "Cl.O=C(O[C@H]1CN[C@H](C#Cc2cc3ncnc(Nc4ccc5c(cnn5Cc5ccccc5)c4)c3s2)C1)N1CCOCC1 [GSK200398A]"
  Percent Control [%]: 100
- MOLECULE: "O=C(Nc1n[nH]c2nc(-c3ccc(O)cc3)c(Br)cc12)C1CC1 [SB-725317]"
  Percent Control [%]: 100

Now turn to the next molecule.
Lab note: need Percent Control for COC(=O)Nc1nc2ccc(Oc3ccc(NC(=O)Nc4cc(C(F)(F)F)ccc4F)cc3)cc2s1.Cl [GW693917A] on PAK6, anyone have it?
82
